Subject Of Test: Recombinant human HSD17B13 enzyme (Homo sapiens)
Sequence (Q7Z5P4 20-300): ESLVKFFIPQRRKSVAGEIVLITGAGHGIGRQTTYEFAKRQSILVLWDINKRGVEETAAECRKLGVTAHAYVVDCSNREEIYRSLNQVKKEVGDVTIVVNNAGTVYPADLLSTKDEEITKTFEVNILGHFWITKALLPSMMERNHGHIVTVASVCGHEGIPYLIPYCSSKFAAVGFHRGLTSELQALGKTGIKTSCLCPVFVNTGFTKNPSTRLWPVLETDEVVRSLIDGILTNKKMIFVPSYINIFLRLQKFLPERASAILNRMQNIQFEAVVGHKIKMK
Assay Overview: HSD17b13 NAD(P)H-Glo biochemical assay
Test Settings: 50 uM estradiol, 1 mM NAD+, NAD(P)H-Glo luminescence; read-out: HSD17β13 IC50
Endpoint Label: IC50

Give Recombinant human HSD17B13 enzyme (Homo sapiens) IC50 for `Oc1cc2c(cnn2-c2ccc(-c3cccc(Cl)c3)cc2)cc1F`
100 to 1000 nM

Same again, this time with `Oc1c(F)cc2cnn(-c3ccc(N4CCC5(CC4)CC5)cc3)c2c1F`
< 100 nM

Same again, this time with `COCC1(C)CCN(c2ccc(-n3ncc4cc(F)c(O)c(F)c43)cc2)CC1`
< 100 nM

Same again, this time with `CS(=O)(=O)C1CN(c2ccc(-n3ncc4cc(F)c(O)c(F)c43)cc2)C1`
100 to 1000 nM

###

Subject Of Test: Recombinant human HSD17B13 enzyme (Homo sapiens, UniProt Q7Z5P4)
Sequence (Q7Z5P4 20-300): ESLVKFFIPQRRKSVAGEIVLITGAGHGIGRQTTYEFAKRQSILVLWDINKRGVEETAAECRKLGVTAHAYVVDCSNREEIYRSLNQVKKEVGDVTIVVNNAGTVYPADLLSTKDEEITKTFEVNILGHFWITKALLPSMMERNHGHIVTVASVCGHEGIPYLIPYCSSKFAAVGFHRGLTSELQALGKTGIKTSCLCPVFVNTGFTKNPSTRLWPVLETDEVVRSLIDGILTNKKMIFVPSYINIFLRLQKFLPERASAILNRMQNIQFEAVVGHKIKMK
Assay Overview: HSD17b13 NAD(P)H-Glo biochemical assay
Test Settings: 50 uM estradiol, 1 mM NAD+, NAD(P)H-Glo luminescence; read-out: HSD17β13 IC50
Endpoint Label: IC50

Solved cases (3 shown):
# Compound Structure String, IC50
records = [
    ("Oc1c(F)cc2cnn(-c3ccc(N4CC5CC(C4)O5)cc3)c2c1F", "100 to 1000 nM"),
    ("CCC1(C)CN(c2ccc(-n3ncc4cc(F)c(O)c(F)c43)cc2)C1", "< 100 nM"),
    ("CC(C)S(=O)(=O)N1CCN(c2ccc(-n3ncc4cc(F)c(O)c(F)c43)cc2)CC1", "100 to 1000 nM"),
]

Quick one: IC50 for `Oc1c(F)cc2nnn(-c3ccc(N4CCO[C@@H](c5ccccc5)C4)cc3)c2c1F` ?
100 to 1000 nM

###

Subject Of Test: Recombinant human HSD17B13 enzyme (Homo sapiens)
Assay Overview: HSD17b13 NAD(P)H-Glo biochemical assay
Test Settings: 50 uM estradiol, 1 mM NAD+, NAD(P)H-Glo luminescence; read-out: HSD17β13 IC50
pIC50: −log10 of the molar value.
Endpoint Label: pIC50

Solved cases (4 shown):
# Molecule, Subject Of Test, Endpoint Label, Value Measured
data = [
    ("CCC1(CC)CN(c2ccc(-n3ncc4cc(F)c(O)c(F)c43)cc2)C1 [Compound 24]", "Recombinant human HSD17B13 enzyme (Homo sapiens)", "pIC50", "> 7.00"),
    ("CS(=O)(=O)NC1CCN(c2ccc(-n3ncc4cc(F)c(O)c(F)c43)cc2)CC1 [Compound 23.17]", "Recombinant human HSD17B13 enzyme (Homo sapiens)", "pIC50", "6.00 to 7.00"),
    ("Oc1ccc(-c2ccc(-n3ncc4ccc(O)c(F)c43)cc2)cc1 [Compound 2.4]", "Recombinant human HSD17B13 enzyme (Homo sapiens)", "pIC50", "6.00 to 7.00"),
    ("N#Cc1ccccc1-c1ccc(-n2ncc3cc(F)c(O)cc32)cc1 [Compound 13.16]", "Recombinant human HSD17B13 enzyme (Homo sapiens)", "pIC50", "6.00 to 7.00"),
]

Quick one: pIC50 for Oc1ccc(-c2ccc(-n3ncc4c(F)cc(O)cc43)cc2)cc1 [Compound 2.7] ?
6.00 to 7.00
